Reference for the values: the OPERA property sets (Mansouri et al. 2018)

Parameter melting point: see the listing below.
measurement name: melting point (°C)

chem_smiles=CCN(CC)CC(=O)OCC(=O)[C@@]1(O)CC[C@H]2[C@@H]3CCC4=CC(=O)CC[C@]4(C)[C@H]3[C@@H](O)C[C@@]21C units_symbol=°C measurement=162
chem_smiles=CCCCCCCCCCCCCCCCCCCCO units_symbol=°C measurement=66.1
chem_smiles=CCC1(CC)COC(=O)NC1=O units_symbol=°C measurement=97.5
chem_smiles=CC1(C)[C@H](/C=C2\CCSC2=O)[C@@H]1C(=O)OCc1coc(Cc2ccccc2)c1 units_symbol=°C measurement=31
chem_smiles=CN(C)CCn1cnc2c1c(=O)n(C)c(=O)n2C units_symbol=°C measurement=95
